TARGET_OF_ASSAY: P2Y purinoceptor 2 (Homo sapiens, UniProt P41231)
Sequence (P41231 whole entry): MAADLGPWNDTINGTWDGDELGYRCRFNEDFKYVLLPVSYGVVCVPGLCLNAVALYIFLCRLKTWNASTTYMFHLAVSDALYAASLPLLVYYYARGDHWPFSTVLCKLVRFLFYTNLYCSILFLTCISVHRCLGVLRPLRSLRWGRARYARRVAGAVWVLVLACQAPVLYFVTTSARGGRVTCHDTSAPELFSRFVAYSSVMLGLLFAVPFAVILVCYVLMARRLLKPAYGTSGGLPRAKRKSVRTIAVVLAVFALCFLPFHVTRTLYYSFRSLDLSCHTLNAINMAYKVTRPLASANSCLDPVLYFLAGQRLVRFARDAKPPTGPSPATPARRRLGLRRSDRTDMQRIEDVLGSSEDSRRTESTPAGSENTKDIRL
ASSAY_DETAILS: Agonist activity at human P2Y2 receptor expressed in human 1321N1 cells assessed as [3H]inositol phosphate accumulation by scintillation proximity assay
Format: functional, cell-based
RECORDED_METRIC: EC50

INSERT INTO results (compound, observed_value) VALUES
  ('O=c1ccn([C@@H]2O[C@H](COP(=O)(O)OP(=O)(O)OP(=O)(O)OP(=O)(O)Oc3ccccc3)[C@@H](O)[C@H]2O)c(=O)[nH]1', '1890 nM'),
  ('O=c1ccn([C@@H]2O[C@H](COP(=O)(O)OP(=O)(O)OP(=O)(O)OP(=O)(O)OC[C@H]3OC(O)[C@@H](O)[C@@H](O)[C@@H]3O)[C@@H](O)[C@H]2O)c(=O)[nH]1 (some centres undefined)', '> 10000 nM'),
  ('O=c1ccn([C@@H]2O[C@H](COP(=O)(O)OP(=O)(O)OP(=O)(O)O)[C@@H](O)[C@@H]2O)c(=S)[nH]1', '140 nM'),
  ('O=c1ccn([C@@H]2O[C@H](COP(=O)(O)OP(=O)(O)OP(=O)(O)OP(=O)(O)OC3CCCCC3)[C@@H](O)[C@H]2O)c(=O)[nH]1', '5860 nM');

----------
TARGET_OF_ASSAY: P2Y purinoceptor 4 (Homo sapiens, UniProt P51582)
Sequence (P51582 whole entry): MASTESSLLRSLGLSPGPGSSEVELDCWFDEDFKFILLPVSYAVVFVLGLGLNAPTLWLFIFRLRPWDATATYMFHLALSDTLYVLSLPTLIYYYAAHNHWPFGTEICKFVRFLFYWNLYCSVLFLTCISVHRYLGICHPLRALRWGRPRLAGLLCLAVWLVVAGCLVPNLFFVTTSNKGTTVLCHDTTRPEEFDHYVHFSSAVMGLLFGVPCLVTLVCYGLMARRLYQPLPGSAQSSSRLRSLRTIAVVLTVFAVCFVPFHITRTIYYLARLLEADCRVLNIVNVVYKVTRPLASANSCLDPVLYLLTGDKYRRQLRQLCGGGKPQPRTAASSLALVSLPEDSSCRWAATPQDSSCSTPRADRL
ASSAY_DETAILS: Agonist activity at human P2Y4 receptor expressed in human 1321N1 cells assessed as [3H]inositol phosphate accumulation by scintillation proximity assay
pEC50: −log10 of the molar value.
# pEC50 listing for each entry below
RECORDED_METRIC: pEC50

INSERT INTO measurements (compound, recorded_metric, observed_value) VALUES
  ('O=c1ccn([C@@H]2O[C@H](COP(=O)(O)OP(=O)(O)OP(=O)(O)OP(=O)(O)O[C@H]3O[C@H](CO)[C@H](O)[C@H](O)[C@H]3O)[C@@H](O)[C@H]2O)c(=O)[nH]1', 'pEC50', 5.75),
  ('O=c1ccn([C@@H]2O[C@H](COP(=O)(O)OP(=O)(O)OP(=O)(O)OP(=O)(O)OC[C@H]3OC(O)C[C@@H](O)[C@@H]3O)[C@@H](O)[C@H]2O)c(=O)[nH]1 (stereo partly drawn)', 'pEC50', 5.36),
  ('O=c1ccn([C@@H]2O[C@H](COP(=O)(O)OP(=O)(O)OP(=O)(O)OP(=O)(O)O)[C@@H](O)[C@H]2O)c(=S)[nH]1', 'pEC50', 5.26);

----------
TARGET_OF_ASSAY: UniProt:P51582
ASSAY_DETAILS: Agonist activity at human P2Y4 receptor expressed in human 1321N1 cells assessed as [3H]inositol phosphate accumulation by scintillation proximity assay
pEC50: −log10 of the molar value.
Documented pEC50 across a set of compounds
RECORDED_METRIC: pEC50

INSERT INTO measurements (compound, recorded_metric, limit_qualifier, observed_value) VALUES
  ('O=c1ccn([C@@H]2O[C@H](COP(=O)(O)OP(=O)(O)OP(=O)(O)OP(=O)(O)OCC(O)CO)[C@@H](O)[C@H]2O)c(=O)[nH]1 (stereo partly specified)', 'pEC50', '=', 5.95),
  ('O=c1ccn([C@@H]2O[C@H](COP(=O)(O)OP(=O)(O)C(F)(F)P(=O)(O)O)[C@@H](O)[C@H]2O)c(=S)[nH]1', 'pEC50', '=', 5.09),
  ('Nc1nc2c(ncn2[C@H]2C[C@H](O)[C@@H](COP(=O)(O)OP(=O)(O)OP(=O)(O)OP(=O)(O)OC[C@H]3O[C@@H](n4ccc(=O)[nH]c4=O)[C@H](O)[C@@H]3O)O2)c(=O)[nH]1', 'pEC50', '=', 6.27),
  ('O=c1ccn([C@@H]2O[C@H](COP(=O)(O)OP(=O)(O)OP(=O)(O)OP(=O)(O)OC[C@H]3OC(O)[C@@H](O)[C@@H](O)[C@@H]3O)[C@@H](O)[C@H]2O)c(=O)[nH]1 (stereo partly specified)', 'pEC50', '<', 5.00),
  ('COP(=O)(O)OP(=O)(O)OP(=O)(O)OP(=O)(O)OC[C@H]1O[C@@H](n2ccc(=O)[nH]c2=O)[C@H](O)[C@@H]1O', 'pEC50', '=', 5.57),
  ('O=c1ccn([C@@H]2O[C@H](COP(=O)(O)OP(=O)(O)OP(=O)(O)OP(=O)(O)OP(=O)(O)O)[C@@H](O)[C@H]2O)c(=S)[nH]1', 'pEC50', '=', 5.28);
